Origin of measurements: ChEMBL document CHEMBL3272081

Assay: Drug metabolism in rat uterine homogenate assessed as compound inactivation after 60 mins
Format: ADME, tissue-based, Uterus
Settings: read-out: Drug metabolism
Bridge positions count the residues as written; N and C are the ends. Square brackets hold non-standard residues; d marks the D form. Peptide text beside a SMILES is read from it. Mpa = O=C(O)CCS
READOUT_LABEL: metabolised at 1 h
Give the figure together with its unit, number first.

Exercise: // metabolised at 1 h lookup, key: CC[C@H](C)[C@@H]1NC(=O)[C@H](Cc2ccc(O)cc2)NC(=O)CCSSC[C@@H](C(=O)NCC(=O)N[C@@H](CC(C)C)C(=O)NCC(N)=O)NC(=O)[C@H](CC(N)=O)NC(=O)[C@H](CCC(N)=O)NC1=O ([Mpa]YIQNCGLG-NH2; disulfide 1-6)
Solution: 30%

###

Overview of reported log10 Activity across a group of molecules:
Molecular target: Oxytocin receptor (Rattus norvegicus) (UniProt P70536)
Sequence (P70536 whole entry): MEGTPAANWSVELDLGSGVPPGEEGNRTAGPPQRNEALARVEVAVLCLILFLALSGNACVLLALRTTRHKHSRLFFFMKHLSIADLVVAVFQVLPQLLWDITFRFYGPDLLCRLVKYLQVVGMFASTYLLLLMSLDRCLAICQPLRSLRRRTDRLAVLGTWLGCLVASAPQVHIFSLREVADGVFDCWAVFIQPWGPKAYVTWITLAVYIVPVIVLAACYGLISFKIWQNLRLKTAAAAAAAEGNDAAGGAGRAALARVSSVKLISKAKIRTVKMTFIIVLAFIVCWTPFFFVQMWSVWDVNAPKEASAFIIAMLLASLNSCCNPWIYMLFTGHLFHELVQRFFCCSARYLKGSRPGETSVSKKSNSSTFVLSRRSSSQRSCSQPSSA
Test: Activity at rat oxytocin receptor in rat uterus assessed as uterotonic activity
Format: tissue-based
Bridge positions count the residues as written; N and C are the ends. Square brackets hold non-standard residues; d marks the D form. Peptide text beside a SMILES is read from it. Mpa = O=C(O)CCS
# log10 transformed; quantity=Activity; unit=USP-U/mg

Consider the following illustrative entries.
MOLECULE: CC[C@H](C)[C@@H]1NC(=O)[C@H](Cc2ccc(O)cc2)NC(=O)CCSSC[C@@H](C(=O)N[C@@H](C)C(=O)N[C@@H](CC(C)C)C(=O)NCC(N)=O)NC(=O)[C@H](CC(N)=O)NC(=O)[C@H](CCC(N)=O)NC1=O ([Mpa]YIQNCALG-NH2; disulfide 1-6)
READOUT_LABEL: log10 Activity
VALUE: 2.09
--
MOLECULE: CC[C@H](C)[C@@H]1NC(=O)[C@H](Cc2ccc(O)cc2)NC(=O)CCSSC[C@@H](C(=O)N2CCC[C@H]2C(=O)N[C@@H](CC(C)C)C(=O)NCC(N)=O)NC(=O)[C@H](CC(N)=O)NC(=O)[C@H](CCC(N)=O)NC1=O
READOUT_LABEL: log10 Activity
VALUE: 2.90
--
MOLECULE: CC[C@H](C)[C@@H]1NC(=O)[C@H](Cc2ccc(O)cc2)NC(=O)[C@@H](N)CSSC[C@@H](C(=O)NCC(=O)N[C@@H](CC(C)C)C(=O)NCC(N)=O)NC(=O)[C@H](CC(N)=O)NC(=O)[C@H](CCC(N)=O)NC1=O (H-CYIQNCGLG-NH2; disulfide 1-6)
READOUT_LABEL: log10 Activity
VALUE: 1.81

Exercise: Which log10 Activity value belongs to CC[C@H](C)[C@@H]1NC(=O)[C@H](Cc2ccc(O)cc2)NC(=O)[C@@H](N)CSSC[C@@H](C(=O)N[C@@H](C)C(=O)N[C@@H](CC(C)C)C(=O)NCC(N)=O)NC(=O)[C@H](CC(N)=O)NC(=O)[C@H](CCC(N)=O)NC1=O (H-CYIQNCALG-NH2; disulfide 1-6) ?
Solution: 1.34

Exercise: I have this molecule here, "CC[C@H](C)[C@@H]1NC(=O)[C@H](Cc2ccc(O)cc2)NC(=O)[C@@H](N)CSSC[C@@H](C(=O)N2CCC[C@H]2C(=O)N[C@@H](CC(C)C)C(=O)NCC(N)=O)NC(=O)[C@H](CC(N)=O)NC(=O)[C@H](CCC(N)=O)NC1=O" , and I need its recorded log10 Activity.
Solution: 2.74

Exercise: Fill in the blank: the reported log10 Activity of CC[C@H](C)[C@@H]1NC(=O)[C@H](Cc2ccc(O)cc2)NC(=O)CCSSC[C@@H](C(=O)NCC(=O)N[C@@H](CC(C)C)C(=O)NCC(N)=O)NC(=O)[C@H](CC(N)=O)NC(=O)[C@H](CCC(N)=O)NC1=O ([Mpa]YIQNCGLG-NH2; disulfide 1-6) is ____.
Solution: 2.55
